assay: ovarian cancer cell viability with rucaparib, profiling panel, oncology-focused library, rucaparib conditional (AID 1508598); settings: patient-derived ovarian cancer cells, CellTiter-Glo viability, 144 h; at 0.00122 µM; OCI-P5x cells; with rucaparib 20 µM; 100% = cells with rucaparib alone
Activity calls are given as the source filed them.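 Rule for the calls: active = normalized viability below 100% at a tested concentration; inactive = the rest.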
Possible outcomes: active, inactive

>>> label_class("COc1cc2ncnc(Nc3ccc(F)c(Cl)c3)c2cc1OCCCN1CCOCC1")
"inactive"
>>> label_class("Nc1ncn([C@H]2C[C@H](O)[C@@H](CO)O2)c(=O)n1")
"inactive"
>>> label_class("O=C(O[C@@H]1Cc2c(O)cc(O)cc2O[C@@H]1c1cc(O)c(O)c(O)c1)c1cc(O)c(O)c(O)c1")
"active"
>>> label_class("CN(N=O)C(=O)N[C@@H]1[C@@H](O)[C@H](O)[C@@H](CO)O[C@@H]1O")
"inactive"
>>> label_class("CC(C)C[C@H](NC(=O)[C@H](Cc1ccccc1)NC(=O)c1cnccn1)B(O)O")
"active"

----------
Recorded log fold change Tl+ flux, one value per entry.
biological target: Calcium-activated potassium channel subunit alpha-1 (Homo sapiens) + Leucine-rich repeat-containing protein 26 (Homo sapiens) (UniProt Q12791+Q2I0M4); test: modulators of BK channel variants, profiling panel, selectivity assay, cell-based, U2OS BacMam, thallium flux, beta subunits (AID 1259406); conditions: F380Y/Slo1WT/gamma1, at 30 µM;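 note: initial slope of Thallos dye fluorescence rise after thallium is added; log ratio against the mean of 0.3% DMSO vehicle wells on the same plate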
Sequence (Q2I0M4 whole entry, looked up, one chain of several): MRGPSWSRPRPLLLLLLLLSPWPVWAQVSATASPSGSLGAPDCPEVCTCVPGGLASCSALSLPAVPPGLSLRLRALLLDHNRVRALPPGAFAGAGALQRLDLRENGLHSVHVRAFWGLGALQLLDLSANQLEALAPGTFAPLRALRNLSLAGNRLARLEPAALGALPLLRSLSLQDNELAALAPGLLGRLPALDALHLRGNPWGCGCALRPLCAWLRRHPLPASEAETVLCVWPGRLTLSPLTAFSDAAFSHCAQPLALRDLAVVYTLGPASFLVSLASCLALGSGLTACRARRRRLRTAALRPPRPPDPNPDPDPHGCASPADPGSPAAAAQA
Calls of active or inactive are those of the source.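 The calls were made as follows: active = thallium flux through the channel raised or lowered by more than 3 SD from vehicle-only wells, actives on both sides; inactive = the rest.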
readout kind: log fold change Tl+ flux

>>> value_observed("CC1=C(/C=C/C(C)=C/C=C/C(C)=C\\C(=O)O)C(C)(C)CCC1")
"-0.0907 (active)"
>>> value_observed("CC(C)(C(=O)O)c1ccc(C(O)CCCN2CCC(C(O)(c3ccccc3)c3ccccc3)CC2)cc1 (stereo not given)")
"0.0201 (inactive)"
>>> value_observed("CCCCC(=O)O[C@H]1CC[C@H]2[C@@H]3CCc4cc(O)ccc4[C@H]3CC[C@]12C")
"0.00253 (inactive)"
>>> value_observed("CN1CCN(C2=Nc3cc(Cl)ccc3Nc3ccccc32)CC1")
"0.0716 (inactive)"
>>> value_observed("COc1cc(Cc2cnc(N)nc2N)cc(OC)c1OC")
"-0.00393 (inactive)"

----------
test: antimalarial activity against Dd2 strain (AID 2302);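 note: 0% = DMSO untreated growth and 100% = chloroquine plus artemisinin killed control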; conditions: P. falciparum Dd2 in RBCs, LDH growth readout, 72 h; at 2 µM; stronger effect = higher value
# label = True if growth inhibition >= 70% else False

>>> label_class("CCCCN(Cc1cc(Cl)c(OC)c(OC)c1)c1ccc(C(O)(C(F)(F)F)C(F)(F)F)cc1")
"True"
>>> label_class("CCCCCCN1CCCN(Cc2ccc(C(=O)Nc3ccc(CC)cc3)cc2)CC1")
"False"
>>> label_class("CCc1ccc(OCc2ccccc2C(=O)Nc2ccc3nc(C)cc(N)c3c2)cc1")
"True"
>>> label_class("Cc1cc(N[C@@H](Cc2ccccc2)C(=O)NCCc2ccccc2)nc(NCCc2ccc(F)cc2)n1")
"True"

----------
assay: ovarian cancer cell viability with rucaparib, profiling panel, oncology-focused library, rucaparib conditional (AID 1508598); settings: patient-derived ovarian cancer cells, CellTiter-Glo viability, 144 h; at 0.00488 µM; OCI-C5x cells; with rucaparib 10 µM; stronger effect = lower value; 100% = cells with rucaparib alone
readout kind: viability (%)

>>> value_observed("CN(N=O)C(=O)N[C@@H]1[C@@H](O)[C@H](O)[C@@H](CO)O[C@@H]1O")
102
>>> value_observed("CN1CC[C@H](c2c(O)cc(O)c3c(=O)cc(-c4ccccc4Cl)oc23)[C@H](O)C1")
92.5
>>> value_observed("CNC(=O)c1ccccc1Sc1ccc2c(/C=C/c3ccccn3)n[nH]c2c1")
109
>>> value_observed("CCN(CC)CCNC(=O)c1c(C)[nH]c(/C=C2\\C(=O)Nc3ccc(F)cc32)c1C")
113
>>> value_observed("Cc1cc(O)c2c(c1)C(=O)c1cccc(O)c1C2=O")
117
>>> value_observed("Clc1ccc(Nc2nnc(Cc3ccncc3)c3ccccc23)cc1")
117
>>> value_observed("CN(C)c1nc(N(C)C)nc(N(C)C)n1")
120
>>> value_observed("CNC(=O)c1cc(Oc2ccc(NC(=O)Nc3ccc(Cl)c(C(F)(F)F)c3)cc2)ccn1")
119
>>> value_observed("CCc1ccc(CCOc2ccc(CC3SC(=O)NC3=O)cc2)nc1 (stereo not drawn)")
108
>>> value_observed("COc1c(C)c2c(c(O)c1C/C=C(\\C)CCC(=O)O)C(=O)OC2")
129
>>> value_observed("Nc1ncn([C@H]2C[C@H](O)[C@@H](CO)O2)c(=O)n1")
113
>>> value_observed("CC(C)C[C@H](NC(=O)[C@H](Cc1ccccc1)NC(=O)c1cnccn1)B(O)O")
119
>>> value_observed("FC(F)c1nc2ccccc2n1-c1nc(N2CCOCC2)nc(N2CCOCC2)n1")
115
>>> value_observed("O=C(O[C@@H]1Cc2c(O)cc(O)cc2O[C@@H]1c1cc(O)c(O)c(O)c1)c1cc(O)c(O)c(O)c1")
123
>>> value_observed("CC/C(=C(\\c1ccccc1)c1ccc(OCCN(C)C)cc1)c1ccccc1")
103
>>> value_observed("Nc1nc(Cl)nc2c1ncn2[C@@H]1O[C@H](CO)[C@@H](O)[C@@H]1F")
116
>>> value_observed("O=C(NOCC1CC1)c1ccc(F)c(F)c1Nc1ccc(I)cc1Cl")
123
>>> value_observed("COc1c(C)c2c(c(O)c1C/C=C(\\C)CCC(=O)OCCN1CCOCC1)C(=O)OC2")
122
>>> value_observed("COc1cc(Nc2c(C#N)cnc3cc(OCCCN4CCN(C)CC4)c(OC)cc23)c(Cl)cc1Cl")
119
>>> value_observed("COc1nc(N)nc2c1ncn2[C@@H]1O[C@H](CO)[C@@H](O)[C@@H]1O")
108
>>> value_observed("CC(C)n1c(/C=C/[C@@H](O)C[C@@H](O)CC(=O)O)c(-c2ccc(F)cc2)c2ccccc21")
92
>>> value_observed("Cc1nc(Nc2ncc(C(=O)Nc3c(C)cccc3Cl)s2)cc(N2CCN(CCO)CC2)n1")
107
>>> value_observed("O=C(CCc1ccc(O)cc1)c1c(O)cc(O)cc1O")
122

meta.source: PubChem BioAssay
